Target: HLA-A*6801 (human)
Assay: competition with 125I probe peptide, purified HLA
Settings: remark: other sources report otherwise
pIC50: −log10 of the molar value.
reportedMetric: pIC50

I: LVHFLLLKY [MAGE2/3.116 9-mer …]
II: LVHFLLLK [MAGE2/3.116 8-mer LVHFLLLK]
Ask | Select the item with the higher value of pIC50 from the options I and II listed. Respond using the label that marks the chosen record.
Reply | II
(II: 6.40, I: 5.10)
